# experimental-system: 6-phosphofructo-1-kinase (PFK) (Rattus norvegicus, UniProt P30835)
# Construct: purified rat liver 6-phosphofructo-1-kinase
# Sequence (P30835 2-780 limits assumed): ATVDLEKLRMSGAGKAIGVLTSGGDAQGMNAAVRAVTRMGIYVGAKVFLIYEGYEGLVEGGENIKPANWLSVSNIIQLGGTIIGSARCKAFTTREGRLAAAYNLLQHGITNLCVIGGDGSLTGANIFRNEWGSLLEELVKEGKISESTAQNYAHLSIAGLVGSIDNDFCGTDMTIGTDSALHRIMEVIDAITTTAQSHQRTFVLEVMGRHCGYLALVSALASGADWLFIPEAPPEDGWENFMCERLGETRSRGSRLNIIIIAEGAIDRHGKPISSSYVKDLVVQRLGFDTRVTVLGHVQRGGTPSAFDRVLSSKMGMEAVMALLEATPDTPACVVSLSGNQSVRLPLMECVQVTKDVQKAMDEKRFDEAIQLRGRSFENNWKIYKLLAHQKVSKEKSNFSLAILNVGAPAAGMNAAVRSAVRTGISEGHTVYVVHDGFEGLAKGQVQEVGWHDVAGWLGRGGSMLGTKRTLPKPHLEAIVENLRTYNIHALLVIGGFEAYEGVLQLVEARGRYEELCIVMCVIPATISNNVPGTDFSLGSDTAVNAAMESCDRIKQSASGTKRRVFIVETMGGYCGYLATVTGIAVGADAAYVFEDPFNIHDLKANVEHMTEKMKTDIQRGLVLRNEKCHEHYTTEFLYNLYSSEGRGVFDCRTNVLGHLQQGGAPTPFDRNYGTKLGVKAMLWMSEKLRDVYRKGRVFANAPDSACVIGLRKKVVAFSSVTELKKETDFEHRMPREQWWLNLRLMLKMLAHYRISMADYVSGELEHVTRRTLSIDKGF
# assay-info: PFK stimulation, aldolase-coupled spectrophotometric assay
# test-parameters: stimulation of purified rat liver 6-phosphofructo-1-kinase; 0.2 mM fructose-6-phosphate, pH 7.3, 30° C.; read-out: PFK ED50
pEC50: −log10 of the molar value.
measured-metric: pEC50

Reference set (5 entries):
1. O=P(O)(O)CCC[C@H]1O[C@H](COP(=O)(O)O)[C@@H](O)[C@@H]1O :: 4.57
2. O=P(O)(O)CCC[C@@H]1O[C@H](COP(=O)(O)O)[C@@H](O)[C@@H]1O :: 4.92
3. O=P(O)(O)C[C@@H]1O[C@H](COP(=O)(O)O)[C@@H](O)[C@@H]1O :: 4.70
4. O=P(O)(O)C[C@@]1(CO)O[C@H](COP(=O)(O)O)[C@@H](O)[C@@H]1O :: 5.22
5. O=P(O)(O)CC[C@H]1O[C@H](COP(=O)(O)O)[C@@H](O)[C@@H]1O :: 5.22

(I) O=P(O)(O)C[C@H]1O[C@H](COP(=O)(O)O)[C@@H](O)[C@@H]1O
(II) O=P(O)(O)C[C@]1(CO)O[C@H](COP(=O)(O)O)[C@@H](O)[C@@H]1O
Problem: Which shows the larger pEC50 value: I or II ? Please identify the chosen entry by its label.
Solution: I
(I: 5.40, II: 4.92)
